# System: HT-29
# METHOD_SUMMARY: SRB colorimetric assay of cell growth and viability, HT-29
# Type: cell-based, human
# CONDITION_DETAILS: 48 hours exposure
Where a SMILES comes first, the peptide text is derived from it. Bridges are numbered along the chain shown (N, C = ends). [ ]: non-standard residue; d: D form. The star is where a group is joined. d(aIle) = CC[C@H](C)[C@@H](N)C(=O)O; d(aThr) = C[C@@H](O)[C@@H](N)C(=O)O; hCha = N[C@@H](CCC1CCCCC1)C(=O)O; Hexanoyl(5-Me) = CC(C)CCCC(=O)*; Orn = NCCC[C@H](N)C(=O)O; Dhb = C/C=C(\N)C(=O)O
Assign TGI HT-29 to each entry below.
Give the quantity in Molar, number only.

So the reported TGI HT-29 for C/C=C1\NC(=O)[C@H](Cc2ccccc2)NC(=O)[C@@H](C(C)C)NC(=O)[C@@H]([C@@H](C)CC)NC(=O)[C@H](NC(=O)[C@H](NC(=O)[C@H](CCCN)NC(=O)[C@H]2CCCN2C(=O)[C@H](NC(=O)[C@H](CCC2CCCCC2)NC(=O)[C@@H](NC(=O)[C@H](NC(=O)CCCC(C)C)C(C)C)[C@@H](C)O)C(C)C)[C@@H](C)CC)[C@@H](C)OC(=O)[C@H](C(C)C)NC1=O [Compound 9, [hCh^11]-KF] ({Hexanoyl(5-Me)}-[dV]T[hCha][dV][dP][Orn][d(aIle)][d(aThr)][d(aIle)][dV]F[Dhb]V; ester 8-C) , on HT-29, turned out to be 1.92E−07

Form: item C/C=C1\NC(=O)[C@H](Cc2ccccc2)NC(=O)[C@@H](C(C)C)NC(=O)[C@@H]([C@@H](C)CC)NC(=O)[C@H](NC(=O)[C@H](NC(=O)[C@H](CCCN)NC(=O)[C@H]2CCCN2C(=O)[C@H](NC(=O)[C@@H](NC(=O)[C@@H](NC(=O)[C@H](NC(=O)CCCC(C)C)C(C)C)C(C)C)C(C)C)C(C)C)[C@@H](C)CC)[C@@H](C)OC(=O)[C@H](C(C)C)NC1=O [Compound 6, [Val^12]-KF] ({Hexanoyl(5-Me)}-[dV]VV[dV][dP][Orn][d(aIle)][d(aThr)][d(aIle)][dV]F[Dhb]V; ester 8-C) ; test system HT-29; TGI HT-29: 2.68E−07
